These measurements were taken from the supplement of paper PMC9170038.

Tested on: MS2 coat protein
assay-info: apparent KD of MS2 coat protein; higher = weaker reporter binding
run-conditions: Eterna round: R107; input ligand: tryptophan 2.4 mM

{"columns": ["sequence-content", "apparent KD of MS2 coat protein, nM"],
 "data": [
  ["UGAUGGUGCUGAAGGAGCGUGUAAGAACAAGAACAUGAGGAUCACCCAUGUAUUAAUUUAACGCAGGUAGGUCGCGGUGUUAUUG [11.M]", 18.6],
  ["AGCCUAUUACAUGAGGAUCACCCAUGUGAUACCAGUCAGGAAACUGACCCUUGGCAGCGCAUGAGGAUCACCCAUGCGCGAGGCA [Omei Theo A Exc A v4]", 10.6],
  ["GACAUGAGGAUCACCCAUGUUUGCUAUGAAGGAGCGUCGGAAAUGACAGGUAGGUCGCAUAGUAGACCUUGUAUUUCGUGUGUUU [#01 Exclusion - Arginine A]", 12],
  ["UGAUUGAACGGAAGGAGCGUGAAGAGAGAGAAACAUGAGGAUCACCCAUGUAGAGAGAGAACACAGGUAGGUCGCCGAGAGAUUG [11.B]", 11.2],
  ["AGGAAACAACAUGAGGAUCACCCAUGUGAUACCAGUCAAAUAAAAGACCCUUGGCAGCACACAUGACAUGAGGAUCACCCAUGUA [AstrosSSTheA#1]", 59.8],
  ["CAUUUUAGAAAACUAAAAUGAGUGGGUGAACGAGGACCGGUACGGCCGCCACUCGGACAUGAGGAUCACCCAUGUCCAUGUGAAA [AstrosExyTryA#22]", 37.8]
]}

###

Tested on: MS2 coat protein
assay-info: apparent KD of MS2 coat protein; designed switch direction (-1 OFF switch, 1 ON switch): 1; higher = weaker reporter binding
run-conditions: input ligand: FMN 200 uM
Entries and their measured apparent KD of MS2 coat protein follow.
measure: apparent KD of MS2 coat protein (nM)

{"columns": ["sequence-content", "value-reported"],
 "data": [
  ["GGAGCCGGCACUGAGGAUAUUCAUAUUAAAACAUGAGGAUCACCCAUGUAGGCCAGAAGGCCUUGGGAGAAGGCAGGUCGGCUCG [Arinin] (Eterna round: R96, puzzle: Same State 2)", 20],
  ["CUGAGCGAUCAAGGAUAUCACGUCGAUUAGACGUGAGAAGGUGAUCAUAACAUGAGGAUCACCCAUGUAUUACAUGAAGCUCAG [SSNG1/2-A2] (Eterna round: R96, puzzle: Same State NG 1)", 386],
  ["AGGCUCAGACGAGGAUAUAUGUAAUAACAUGAGGAUCACCCAUGUGUCGAGCUUCGGCUCGACACAUAGAAGGCGUCUGAGCCA [SSNG2/2-A1] (Eterna round: R96, puzzle: Same State NG 2)", 8.75]
]}

###

System: MS2 coat protein
assay-info: apparent KD of MS2 coat protein; higher = weaker reporter binding
run-conditions: Eterna round: R107; input ligand: theophylline 2 mM

{"columns": ["sequence-content", "unit-label", "apparent KD of MS2 coat protein"],
 "data": [
  ["AAUAAUAAGAAUAACGUACCAGGUGAUCAACGAGGACCGGUACGGCCGCCACUCGAAACAUGAGGAUCACCCAUGUAAUAACAAU [|T'-M'-Trp-Ms2|_Design 2_OL]", "nM", 124],
  ["UCGGACAUGAGGAUCACCCAUGUAAAUCCUCGAGGACCGGUACGGCCGCCACUCGAACGAGUGGCGCGCGAGCGCGCGCUCGCGC [aGa]", "nM", 62.5],
  ["AGCACUGUGACGGCCGCCACUACAUAUAGGGUGGUCAGGUUCAUAAUACAUGAGGAUCACCCAUGUAGGACCGGGUCUCAGUGCA [Omei Trp Exc B A v5]", "nM", 14.6],
  ["GCUAGGUCAUCGGCCGCCACUAACGACGGCUCCAACAUGAGGAUCACCCAUGUGCCACAUGCGCAUAGGACCGGGAUGACCUAGC [SSTB NP+V+V2 #4]", "nM", 45],
  ["UACUUGCUGACGGCCGCCACUAGAACAUGAGGAUCACCCAUGUACCUGGUCCUUCAUGGGUGGACUAGGACCGGGUCAGCAAGAU [(Trp1)-(Ms2)-(T)'-(M)'-(Trp2)_Design4]", "nM", 517],
  ["AGUUUAGACACGGCCGCCACUCGUGACAGAUUUCGCAGUGGUCUACAUGAGGAUCACCCAUGUCUGAGGACCGGGUGUUGAGUUU [XTryp B #8]", "nM", 194],
  ["ACAUGAGGAUCACCCAUGUACAUCACCCGACGAGGACCGGUACGGCCGCCACUCGGGUAUAUAUAUACAUCGGGUGAUUUUGCAU [#21 Tryptophan A Same State]", "nM", 79.5],
  ["UUAUGCAGGUCGGCCGCCACUACACACAUGAGGAUCACCCAUGUAGUUACUGGGUGAAGUGGCAGUAGGACCGGGACCUGCAUAC [Brourdmod06]", "nM", 877],
  ["GGGCCCGGGCGCGAGCCCGGGCCCAUUGAUACCAGUGAUAUAUAACGCCCUUGGCAGCGAAUCCUAACAUGAGGAUCACCCAUGU [5.G]", "nM", 71.8],
  ["CCUUUGUAGCGAAGGAGCGCGUGACUUAGCUCAUGUAAACAUGAGGAUCACCCAUGUGACACGCAGGUAGGUCGCGCUAUGAAGG [Arg B Ex t3]", "nM", 23.5],
  ["UCGUUUUAGUCGGCCGCCACUGUAUGCAUGUUUAACAUGAGGAUCACCCAUGUCCCGUACUAUAACAGGACCGGGACGUAAUAGA [JR_SSTryptoB_Sub006]", "nM", 936],
  ["CUCCCGUGGUCGGCCGCCACUGGAGGCUUUGCGCGACAUGAGGAUCACCCAUGUGUGCCCGGCGUCAGGACCGGGAUCGCGUGAG [#1 Same State - Tryptophan B Attempt #13 (HarryS)]", "nM", 17.7],
  ["CCAUGGUUGACGGCCGCCACUCAUUAGUCUUUGAGGUUGGCACAUGAGGAUCACCCAUGUCUGCAGAGGACCGGGUCUCGCCACA [theeternabot_sameState_MS2_Trp_B_15]", "nM", 54.4],
  ["GGACUAACCAGAAGGAGCGACGCGCAGAAACUGCAAAAUCCUCCACACGAGGAUCACCCGUGUCAGGUAGGUCGCUGGUUAGUCG [ArgXB 16 #CuTurnoff #MS2Left #StaticStem #Blueprint]", "nM", 27.2],
  ["AGUAGACACGCGGCCGCCACUUGAGGAUCACCCAAGUGGUGUGUACUUGAAACAAGUGCACAAUCAAGGACCGGGCGUGUCUACA [Omei Tryp B SS D v4]", "nM", 7.77],
  ["CCUAUCCAGUCGGCCGCCACUGAAAACAGUGGGUGAACAUGAGGAUCACCCAUGUCGGAAUACCGCAGGACCGGGACUGUAUAGG [Ex Tryptophan B 23]", "nM", 1220],
  ["UAACAUGAGGAUCACCCAUGUUUAGAUGAACGAGGACCGGUACGGCCGCCACUCGAUAAGUGGCAAGAACGAGGGAUUGUAUGCU [Same State Trp A GF3]", "nM", 11.7],
  ["UAUACUAUGAAAGUAGUAUAUACGUGUUGACGAGGACCGGUACGGCCGCCACUCGACAUGAGGAUCACCCAUGUAUAGAAUAAGU [TrypA_F1]", "nM", 30],
  ["AAACUUCGCAUAGGAAAACUAUGUGAAGAUCGAGGACCGGUACGGCCGCCACUCGUCCUCAACAUGAGGAUCACCCAUGUAAUAA [Mat - Exclusion - Trytophan A - D3]", "nM", 23],
  ["AGGACGGUCGGAAGGAGCGGUACAUGAGGAUCACCCAUGUACUUAUGGGCAUCCGUAGAGUGCCAGGUAGGUCGCCGAUUGCGGG [XArg-B11]", "nM", 21.8],
  ["AGUAUCAGUGGAAGGAGCGUCGCGACUGCUACAUGAGGAUCACCCAUGUCGCCUUGAGCGCGACAGGUAGGUCGCCACGGUAGGC [SS-ArgB1]", "nM", 72.1],
  ["AUAAUAAAGUCGGCCGCCACUAUAAACAUGAGGAACAUGAGGAUCACCCAUGUAUGAGGAUCACCUAGGACCGGGACAAAUAUUA [AstrosExyTryB#3]", "nM", 63.1],
  ["GGACUAACCAGAAGGAGCGACACGCAGAAACUGCAAUUUCCUCCGCACGAGGAUCACCCGUGUCAGGUAGGUCGCUGGUUAGUCG", "nM", 25.8]
]}
